# Tested on: H. influenzae ATCC 49247
# test description: MIC determination, broth microdilution (CLSI)
# Format: cell-based
# setup conditions: Haemophilus influenzae, ATCC49247, strain 12; broth microdilution; read-out: MIC strain 12 (H. influenzae ATCC 49247)
property label: MIC

compound	experimental value
CC1(C)[C@H](NC(=O)/C(=N\OCCOc2ccc(C(=N)NC3CNNC3)cc2)c2csc(N)n2)C(=O)N1OS(=O)(=O)O [Example 92]	0.125 µg/mL
CC(C)(N)CNC(=N)c1ccc(OC[C@H](O/N=C(\C(=O)N[C@@H]2C(=O)N(OS(=O)(=O)O)C2(C)C)c2csc(N)n2)C(=O)O)cc1 [Example 94]	≤ 0.063 µg/mL
C[C@H]1[C@H](NC(=O)/C(=N\OCCOCc2cc(C(=N)N)cs2)c2csc(N)n2)C(=O)N1S(=O)(=O)O [Example 56]	2 µg/mL
CC1(C)[C@H](NC(=O)/C(=N\O[C@@H](COc2ccc(C(=N)N[C@@H]3CCCNC3)cc2)C(=O)O)c2csc(N)n2)C(=O)N1OS(=O)(=O)O [Example 88]	≤ 0.063 µg/mL
C[C@H]1[C@H](NC(=O)/C(=N\OCCOc2ccc(C(=N)N)cc2COC=O)c2csc(N)n2)C(=O)N1S(=O)(=O)O [Example 60]	1 µg/mL
CC1(C)[C@H](NC(=O)/C(=N\OC(COc2ccc(C(=N)NC3CCCNC3)cc2)C(=O)O)c2csc(N)n2)C(=O)N1OS(=O)(=O)O (stereo in doubt) [Example 89]	≤ 0.063 µg/mL
CC1(C)[C@H](NC(=O)/C(=N\O[C@@H](COc2ccc(C(=N)NC3CNCC3N)cc2)C(=O)O)c2csc(N)n2)C(=O)N1OS(=O)(=O)O (some centres unmarked) [Example 106]	≤ 0.063 µg/mL
CC1(C)[C@H](NC(=O)/C(=N\O[C@@H](COc2ccc(C(=N)NCC3CCCCN3)cc2)C(=O)O)c2csc(N)n2)C(=O)N1OS(=O)(=O)O (some centres unmarked) [Example 99]	≤ 0.063 µg/mL

---

# Tested on: E. cloacae 34654
# test description: MIC determination, broth microdilution (CLSI)
# Format: cell-based
# setup conditions: Enterobacter cloacae, 34654, strain 3
Response field label takes MET when MIC is strictly below 0.5 µg/mL and NOT MET in all other cases.

molecule	class name
CN1CC[C@H](NC(=N)c2ccc(OC[C@H](O/N=C(\C(=O)N[C@@H]3C(=O)N(OS(=O)(=O)O)C3(C)C)c3csc(N)n3)C(=O)O)cc2)C1	MET
CC1(C)[C@H](NC(=O)/C(=N\OCCSc2ccc(C(=N)N)cc2)c2csc(N)n2)C(=O)N1OS(=O)(=O)O	NOT MET
C[C@H]1[C@H](NC(=O)/C(=N\OCCCOc2ccc(NC(=N)N)cc2)c2csc(N)n2)C(=O)N1S(=O)(=O)O	NOT MET
C[C@H]1[C@H](NC(=O)/C(=N\OCCOc2ccc(C(=N)N)nn2)c2csc(N)n2)C(=O)N1S(=O)(=O)O	MET
CC1(C)[C@H](NC(=O)/C(=N\OCCOc2ccc(C3=NCC(CN)N3)cc2)c2csc(N)n2)C(=O)N1OS(=O)(=O)O (stereo partly shown)	MET
C[C@@H]1[C@H](NC(=O)/C(=N\OCCOc2ccc(C(=N)N)cc2)c2csc(N)n2)C(=O)N1OS(=O)(=O)O	NOT MET
CNCCNC(=N)c1ccc(OC[C@H](O/N=C(\C(=O)N[C@@H]2C(=O)N(OS(=O)(=O)O)C2(C)C)c2csc(N)n2)C(=O)O)cc1	MET
CC1(C)[C@H](NC(=O)/C(=N\OCCOc2ccc(C(=N)NCc3ccccn3)cc2)c2csc(N)n2)C(=O)N1OS(=O)(=O)O	NOT MET
C[C@H]1[C@H](NC(=O)/C(=N\OCCOc2ccc(C(=N)N)cc2)c2nsc(N)n2)C(=O)N1S(=O)(=O)O	NOT MET
CC1(C)[C@H](NC(=O)/C(=N\OC(COc2ccc(C(=N)N)cc2)CC(=O)O)c2csc(N)n2)C(=O)N1OS(=O)(=O)O (mixture of isomers)	NOT MET
C[C@H]1[C@H](NC(=O)/C(=N\OCCOc2ccc(C(=N)NCCOC=O)cc2)c2csc(N)n2)C(=O)N1S(=O)(=O)O	MET
N=C(N)c1ccc(OCCO/N=C(\C(=O)N[C@@H]2C(=O)N(S(=O)(=O)O)[C@@H]2C(N)=O)c2csc(N)n2)cc1	NOT MET
C[C@H]1[C@H](NC(=O)/C(=N\OCCOc2ccc(C(=N)N)cc2)c2csc(N)n2)C(=O)N1OS(=O)(=O)O	NOT MET
CC1(C)[C@H](NC(=O)/C(=N\OC(COc2ccc(C(=N)NC3CCCNC3)cc2)C(=O)O)c2csc(N)n2)C(=O)N1OS(=O)(=O)O (stereo in doubt)	MET
C[C@H]1[C@H](NC(=O)/C(=N\OCCOc2ccc(NC(=N)N)cc2)c2csc(N)n2)C(=O)N1S(=O)(=O)O	NOT MET
CC1(C)[C@H](NC(=O)/C(=N\OCCOc2ccc(C(=N)NCCCN)cc2)c2csc(N)n2)C(=O)N1OS(=O)(=O)O	MET
CNC(=N)c1ccc(OCCO/N=C(\C(=O)N[C@@H]2C(=O)N(S(=O)(=O)O)[C@H]2C)c2csc(N)n2)cc1	MET
CC1(C)[C@H](NC(=O)/C(=N\OCCOc2ccc(C(=N)N)cc2)c2csc(N)n2)C(=O)N1OS(=O)(=O)O	MET
C[C@H]1[C@H](NC(=O)/C(=N\OCCOc2ccc(C(=N)N)cc2COC=O)c2csc(N)n2)C(=O)N1S(=O)(=O)O	NOT MET
C[C@H]1[C@H](NC(=O)/C(=N\OCCOc2ccc(C(=N)NO)cc2)c2csc(N)n2)C(=O)N1S(=O)(=O)O	NOT MET

---

# System: E. coli ATCC25922
# test description: MIC determination, broth microdilution (CLSI)
# Type: cell-based
# setup conditions: Escherichia coli, ATCC25922, strain 1

molecule	MIC
C[C@H]1[C@H](NC(=O)/C(=N\OC(C)(C)COc2ccc(C(=N)N)cc2)c2csc(N)n2)C(=O)N1S(=O)(=O)O	1 µg/mL
C[C@H]1[C@H](NC(=O)/C(=N\OCCOc2ccc(C(=N)N)cc2)c2nc(N)sc2Cl)C(=O)N1S(=O)(=O)O	2 µg/mL
CC1(C)[C@H](NC(=O)/C(=N\O[C@@H](COc2ccc(C(=N)N[C@@H]3CCNC3)cc2)C(=O)O)c2csc(N)n2)C(=O)N1OS(=O)(=O)O	0.125 µg/mL
CC1(C)[C@H](NC(=O)/C(=N\O[C@@H](COc2ccc(C(=N)N[C@@H]3CCCNC3)cc2)C(=O)O)c2csc(N)n2)C(=O)N1OS(=O)(=O)O	≤ 0.063 µg/mL
CC1(C)[C@H](NC(=O)/C(=N\OC(COc2ccc(C(=N)N)cc2)C(N)=O)c2csc(N)n2)C(=O)N1OS(=O)(=O)O (stereo partly drawn)	0.25 µg/mL
C[C@H]1[C@H](NC(=O)/C(=N\OCCOc2ccc(C(=N)N)c(O)c2)c2csc(N)n2)C(=O)N1S(=O)(=O)O	0.125 µg/mL

---

# MIC annotations
# Test system: A. baumannii ATCC15308
# test description: MIC determination, broth microdilution (CLSI)
# Type: cell-based
# setup conditions: Acinetobacter baumannii, ATCC15308, strain 9

compound	u	MIC
CC1(C)[C@H](NC(=O)/C(=N\O[C@@H](COc2ccc(C(=N)NCCNc3ncccn3)cc2)C(=O)O)c2csc(N)n2)C(=O)N1OS(=O)(=O)O	µg/mL	32
CC1(C)[C@H](NC(=O)/C(=N\OCCOc2ccc(C(=N)N3CCNCC3)cc2)c2csc(N)n2)C(=O)N1OS(=O)(=O)O	µg/mL	2
C[C@H]1[C@H](NC(=O)/C(=N\OC(COc2ccc(C(=N)N)cc2)C(=O)O)c2csc(N)n2)C(=O)N1S(=O)(=O)O (mixture of isomers) [Example 26A]	µg/mL	8
C[C@H]1[C@H](NC(=O)/C(=N\OC(C)(C)COc2ccc(C(=N)N)cc2)c2csc(N)n2)C(=O)N1S(=O)(=O)O	µg/mL	16
CC1(C)[C@H](NC(=O)/C(=N\O[C@@H](COc2ccc(C(=N)NCC3CCCCN3)cc2)C(=O)O)c2csc(N)n2)C(=O)N1OS(=O)(=O)O (stereo partly drawn)	µg/mL	2
CN1CC(NC(=N)c2ccc(OC[C@H](O/N=C(\C(=O)N[C@@H]3C(=O)N(OS(=O)(=O)O)C3(C)C)c3csc(N)n3)C(=O)O)cc2)C1	µg/mL	2

---

# System: E. coli ATCC25922
# test description: MIC determination, broth microdilution (CLSI)
# Format: cell-based
# setup conditions: Escherichia coli, ATCC25922, strain 1
# MIC annotations

compound	MIC
CC1(C)[C@H](NC(=O)/C(=N\O[C@@H](COc2ccc(C(=N)NC3CCNCC3)cc2)C(=O)O)c2csc(N)n2)C(=O)N1OS(=O)(=O)O [Example 108]	0.125 µg/mL
CC1(C)[C@H](NC(=O)/C(=N\OC(COc2ccc(C(=N)N)cc2)CC(=O)O)c2csc(N)n2)C(=O)N1OS(=O)(=O)O (mixture of isomers) [Example 46]	2 µg/mL
CC1(C)[C@H](NC(=O)/C(=N\OCCOc2ccc(C(=N)N)cc2)c2csc(N)n2)C(=O)N1OS(=O)(=O)O [Example 41]	0.25 µg/mL
N=C(N)c1ccc(OCCO/N=C(\C(=O)N[C@@H]2C(=O)N(S(=O)(=O)O)[C@@H]2C(N)=O)c2csc(N)n2)cc1 [Example 66]	2 µg/mL
CN(C)C(=O)[C@@H]1C[C@H](NC(=N)c2ccc(OCCO/N=C(\C(=O)N[C@@H]3C(=O)N(OS(=O)(=O)O)C3(C)C)c3csc(N)n3)cc2)CN1 [Example 42]	1 µg/mL
CC1(C)[C@H](NC(=O)/C(=N\OCCOc2ccc(C(=N)N)cc2)c2csc(N)n2)C(=O)N1OCS(=O)(=O)O [Example 90]	0.5 µg/mL
